Just for reference, paper PMC10397247 is where these values come from.

# subjectOfTest: T1, 4H4073-bN
# T1 chain: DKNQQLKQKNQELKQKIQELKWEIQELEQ
# assayNotes: two-hybrid library CCNG1;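 further: natural log of median RNA to DNA barcode read ratio; higher means stronger binding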
Classification field: TRUE = interaction score at or over -1; FALSE = interaction score under -1.

Entry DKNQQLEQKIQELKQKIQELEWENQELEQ [4H3427-bN] : is its interaction score no less than -1?
FALSE

Please check the record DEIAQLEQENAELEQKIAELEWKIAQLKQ [4H166-bA] and state if its interaction score is at or above -1.
TRUE

I'd appreciate it if you could say whether DKIQQLKQEIQELKQEIQELEWENQELEQ [4H2627-bN] has interaction score at least equal to -1.
TRUE

Could you please find out whether DKIQQLKQKNQELKQEIQELEWEIQELKQ [4H3010-bN] has interaction score that meets -1 or exceeds it?
FALSE

// inclusive: interaction score at least -1? input: DEIQQLEQKIQELKQENQELKWEIQELKQ [4H346-bN]
TRUE

Is interaction score for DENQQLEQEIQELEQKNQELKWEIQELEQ [4H1081-bN] at or above -1?
TRUE

Does interaction score meet or surpass -1 for DEIQQLEQEIQELKQKIQELKWKNQELKQ [4H112-bN] ?
TRUE

Tell me whether interaction score is at least -1 here: DENQQLKQKIQELEQKIQELEWKNQELEQ [4H1831-bN]
TRUE

Does the reported interaction score for DKIQQLKQEIQELEQENQELKWEIQELKQ [4H2586-bN] fall at or above the -1 mark?
TRUE

Is interaction score for DEIQQLEQEIQELKQKNQELEWKIQELKQ [4H118-bN] at or above -1?
FALSE

Kindly determine if interaction score recorded for DKNQQLKQKIQELKQENQELEWKIQELKQ [4H3926-bN] is above or exactly -1.
FALSE

Hi team, for DKIQQLKQENQELEQEIQELKWKIQELKQ [4H2702-bN] , is the recorded interaction score at or above -1?
TRUE

Determine whether measured interaction score meets or exceeds -1 for DEIQQLEQENQELEQKIQELKWEIQELKQ [4H170-bN]
TRUE

Does the binder DKNQQLKQKNQELKQKIQELKWEIQELEQ [4H4073-bN] have recorded interaction score that is -1 or more?
FALSE
